Biological target: MLKL (Homo sapiens, UniProt Q8NB16, G330E)
Construct: full-length hMLKL(2–471)
Sequence (Q8NB16 2-471 G330E): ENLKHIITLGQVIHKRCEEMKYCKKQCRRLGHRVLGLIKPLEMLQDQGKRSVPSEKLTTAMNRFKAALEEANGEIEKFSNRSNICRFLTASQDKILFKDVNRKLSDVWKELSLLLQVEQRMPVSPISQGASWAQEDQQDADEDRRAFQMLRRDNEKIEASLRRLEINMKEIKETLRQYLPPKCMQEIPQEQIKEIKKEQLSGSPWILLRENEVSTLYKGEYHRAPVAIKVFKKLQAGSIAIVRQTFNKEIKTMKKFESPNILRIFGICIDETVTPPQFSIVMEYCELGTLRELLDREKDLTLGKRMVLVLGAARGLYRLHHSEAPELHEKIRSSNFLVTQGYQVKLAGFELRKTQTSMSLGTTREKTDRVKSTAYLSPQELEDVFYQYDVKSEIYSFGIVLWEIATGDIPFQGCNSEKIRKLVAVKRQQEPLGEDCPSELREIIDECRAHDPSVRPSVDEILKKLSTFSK
Assay: thermal shift assay with ATP titration
value_type: Kd (µM)
Use µM as the unit, but write only the number.

Can you share its Kd? I mean this compound: Nc1ncnc2c1ncn2[C@@H]1O[C@H](COP(=O)(O)OP(=O)(O)OP(=O)(O)O)[C@@H](O)[C@H]1O [ATP]
28
